# Experiment notes: Surrogate Activity-Based Plasma Stability Assay
# Assay type: in vitro ADME
# Particulars: rat, Surrogate Activity based Plasma stability t½
Where a SMILES comes first, the peptide text is derived from it. [ ]: non-standard residue; d: D form. pGlu = O=C1CC[C@@H](C(=O)O)N1; dNle = CCCC[C@@H](N)C(=O)O; Aib = CC(C)(N)C(=O)O
Endpoint label: half-life (h)
API: value field is a number in h; no unit string.

Molecule | Numeric value
CCCC[C@@H](NC(=O)[C@@H]1CCCN1C(=O)CNC(=O)[C@H](CCCCN)NC(=O)C(C)(C)NC(=O)[C@H](CO)NC(=O)[C@@H](CC(C)C)NC(=O)[C@H](CCCNC(=N)N)NC(=O)[C@@H]1CCCN1C(=O)[C@H](CCCNC(=N)N)NC(=O)[C@@H]1CCC(=O)N1)C(=O)N[C@H](C)C(=O)N[C@H](Cc1ccccc1)C(=O)O [Example 4, pE-R-P-R-(D-Leu)-S-Aib-K-G-P-nle-a-f-OH] ([pGlu]RPR[dL]S[Aib]KGP[dNle][dA][dF]-OH) | 12.2
CCCC[C@@H](NC(=O)[C@@H]1CCCN1C(=O)CNC(=O)[C@H](CCCCN)NC(=O)[C@H](Cc1c[nH]cn1)NC(=O)[C@@H](C)NC(=O)[C@H](CC(C)C)NC(=O)[C@H](CCCNC(=N)N)NC(=O)[C@@H]1CCCN1C(=O)[C@H](CCCNC(=N)N)NC(=O)[C@@H]1CCC(=O)N1)C(=O)N[C@H](CC(C)C)C(=O)N[C@H](Cc1ccccc1)C(=O)O [Example 14, pE-R-P-R-L-a-H-K-G-P-nle-(D-Leu)-f-OH] ([pGlu]RPRL[dA]HKGP[dNle][dL][dF]-OH) | 3.08
CCCC[C@@H](NC(=O)[C@@H]1CCCN1C(=O)CNC(=O)[C@H](CCCCN)NC(=O)[C@@H](Cc1c[nH]cn1)NC(=O)[C@@H](C)NC(=O)[C@H](CC(C)C)NC(=O)[C@H](CCCNC(=N)N)NC(=O)[C@@H]1CCCN1C(=O)[C@H](CCCNC(=N)N)NC(=O)[C@@H]1CCC(=O)N1)C(=O)N[C@H](C)C(=O)N[C@H](Cc1ccccc1)C(=O)O | 6.82

What value of measured half-life is listed for CCCC[C@@H](NC(=O)[C@@H]1CCCN1C(=O)CNC(=O)[C@H](CCCCN)NC(=O)[C@H](Cc1c[nH]cn1)NC(=O)[C@@H](C)NC(=O)[C@H](CC(C)C)NC(=O)[C@H](CCCNC(=N)N)NC(=O)[C@@H]1CCCN1C(=O)[C@H](CCCNC(=N)N)NC(=O)[C@@H]1CCC(=O)N1)C(=O)N[C@H](C)C(=O)N[C@H](Cc1ccccc1)C(=O)O ?
9.42

The measurements presented in this section are drawn from patent US8921307B2.
